Reference source: PubChem BioAssay

- assay_explanation: growth suppression of yeast trafficking mutant, preliminary HTS, modulators of trafficking downstream of Golgi apparatus project, 1536-format plate, OD 615 nm (AID 637)
- test_conditions: yeast transport mutant growth, absorbance 615 nm, 18 h
The source made the active and inactive calls. Rule as the data show it: active = inhibition above about 30%; inactive = the rest.
API: response.call in 1.0 (active), 0.0 (inactive)

# molecule, class
rows = [
    ("COc1cccc(-n2ccnc2SCC(=O)N2CCc3ccccc32)c1", 0.0),
    ("CCCS(=O)(=O)N1CCN(Cc2ccc(OCc3ccccc3)c(OC)c2)CC1", 1.0),
    ("O=C(NC12CC3CC(CC(C3)C1)C2)C1CCCN1C(=O)NC1CCCCC1 (stereo unspecified)", 0.0),
]

How was COc1ccc(S(=O)(=O)N2CCCC2C(=O)Nc2ccc(C)cc2)cc1 (stereo unspecified) classified in this test?
0.0

Which result was noted for this molecule in the test: `COc1ccc(C)cc1NC(=O)CSc1nnnn1Cc1ccccc1`
0.0

Just curious, what result did `O=C(COC(=O)c1ccc(S(=O)(=O)Nc2ccccc2)cc1)NCCN1C(=O)CSC1=O` get here?
0.0

In this assay, the call recorded for CCOc1ccccc1NC(=O)C1CCCN(C(=O)NCc2ccccc2)C1 (stereo unspecified) was what?
0.0

Hello, I am checking results. What call was entered for CCSc1nc2c(c(=O)n1CC)SC(C)C2 (stereo unspecified) ?
0.0

Tell me the assay call for `COc1ccc(Br)cc1CNC(=O)CCc1nc(-c2ccc(C)cc2)no1` please.
0.0

Could you check what this test reported for `Cc1ccc(NC(=O)Cn2cccc2)cc1Cl` ?
0.0

Status in this test for `c1ccc(-c2cc3c(nn2)CCc2nonc2-3)cc1` ?
0.0

====

- assay_explanation: HUVEC growth inhibition – cell-based, human, primary screen (AID 575);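 also: 100% = median of untreated cell wells with 0.1% DMSO on each plate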
- test_conditions: HUVEC proliferation, CellTiter-Glo luminescence, 72 h; at 10 µM; hits give low values
property_label: viability (%)
Give the value, in units of %, as a plain number.

Some solved cases for reference:
# molecule, quantitative_result
rows = [
    ("COc1ccc(NC(=O)c2cc(C(C)C)on2)c(OC)c1", 79.5),
    ("FC(F)Oc1ccc(-c2csc(Cc3nnc4n3CCCCC4)n2)cc1", 110),
    ("CCOC(=O)C1CCN(C(c2cc3cc(C)cc(C)c3[nH]c2=O)c2nnnn2C2CCCCC2)CC1 (configuration not stated)", 57.3),
]

I would be grateful if you could share the reported viability for Cc1cc(C)c(NC(=O)C2CCCN2CCO)c(C)c1 (configuration not stated) .
108

Any idea what its viability is? The molecule is `CCN1CCN(C(=O)c2ccc3c(=O)n(CCC4=CCCCC4)c(=O)[nH]c3c2)CC1`
78.1

Need viability of `Fc1ccc(-c2csc3nnc(SCc4cccnc4)n23)cc1` , thanks.
85.7

Fill in the blank: the reported viability of `COC(=O)c1cn(C(=O)OC)c2ccccc12` is ____.
85.1

Item under review: CCOc1ccc(CNC(=O)C2CCCN(S(C)(=O)=O)C2)cc1OC (configuration not stated) . Reported viability?
102

Item `Brc1ccc(-c2csc(/N=C/N3CCOCC3)n2)cc1` has what recorded viability?
85

Data request, read-out viability, for CC1=C(C(=O)OC2CCCCC2)C(c2cccnc2)n2ncnc2N1 (configuration not stated)
105
